Target: PLpro from SARS-CoV-2 (Severe acute respiratory syndrome coronavirus 2)
Type: biochemical
Settings: read-out: IC50 (µM) determined using Ub-AMC as a PLpro substrate; 20 nM PLpro, 5 μM Ub-AMC, triplicates
Consider the following compounds and their measured IC50 readings.
Answer with a number only, understood to be in µM.

# count of solved cases: 2
- SMI: "O=C1CC(=O)c2c(Cl)c(Cl)c(Cl)c(Cl)c21"
  TGT: "PLpro from SARS-CoV-2 (Severe acute respiratory syndrome coronavirus 2)"
  IC50 [µM]: 10.5
- SMI: "N#CSc1cc(SC#N)c(N)nc1N"
  TGT: "PLpro from SARS-CoV-2 (Severe acute respiratory syndrome coronavirus 2)"
  IC50 [µM]: 12.9

For the next question, use this compound.
Prompt: Quick one: IC50 of O=C1c2ccccc2C(=O)c2oc(-c3ccccc3)nc21 ?
Completion: 0.091
